Test: clinical
Settings: human, in vivo, po, Concentration, Mean (% CV)
MEASURED METRIC: concentration at 10 day (ng/mL)
Quick note: give the figure in ng/mL, leave out the unit.

# molecule "CC(C)(C#Cc1ccc(-c2ccc(Cl)c3c(NS(C)(=O)=O)nn(CC(F)(F)F)c23)c([C@H](Cc2cc(F)cc(F)c2)NC(=O)Cn2nc(C(F)(F)F)c3c2C(F)(F)[C@@H]2C[C@H]32)n1)S(C)(=O)=O" ; its concentration at 10 day = 76.2

###

Assay: LEN plasma concentrations during oral bridging period, CALIBRATE (Phase 2, ARV-naive PWH)
Assay type: in vivo
Details: human, plasma, sc, 300 mg, SC LEN total, Week 10, read-out: Lower 90% CI of Concentration
MEASURED METRIC: concentration at 10 week
Kindly report the value followed by its unit.

Value of concentration at 10 week reported for the compound CC(C)(C#Cc1ccc(-c2ccc(Cl)c3c(NS(C)(=O)=O)nn(CC(F)(F)F)c23)c([C@H](Cc2cc(F)cc(F)c2)NC(=O)Cn2nc(C(F)(F)F)c3c2C(F)(F)[C@@H]2C[C@H]32)n1)S(C)(=O)=O [LEN] is 47.1 ng/mL

src = patent US20240390349A1
